test: IV PK, mouse; assay type: in vivo; conditions: in vivo, read-out: IV PK CL
Parameter measured: clearance (mL/min/kg)

* COc1cc(-c2cn(C)c(=O)c(C)c2C)cc(OC)c1CN1CCC(N2CCN(c3ccc(NC4CCC(=O)NC4=O)cc3F)CC2)C(F)(F)C1 (single isomer, unassigned) [Compound 176] | 6.2
* COc1cc(-c2cn(C)c(=O)c(C)c2C)cc(OC)c1CN1CCC(N2CCN(c3ccc(NC4CCC(=O)NC4=O)cc3F)CC2)C(F)(F)C1 (centres unmarked) [Compound 172] | 3.4

====

Target: BRD9 (Homo sapiens)
Assay: HiBiT BRD9 degradation assay in 293T.166 (BRD9-HiBiT) cells
Type: cell-based
Design: endogenously expressing BRD9 with HiBiT fusion tag via CRISPR; host or cells: 293T.166 (BRD9-HiBiT), also expressing LgBiT ectopically
Details: Table 1; 293T.166 cells, 2.0 hours; class symbols; read-out: HiBiT-Degradation 293T.166 BRD9 2.0 hours (DC50)
Experimental: Selected compounds were tested in a BRD9 degradation assay using the HiBit Method. Dulbecco's modified Eagle medium (DMEM) without phenol red and fetal bovine serum (FBS) were purchased from Gibco (Grand Island, N.Y., USA). […] BRD9 degradation was determined based on quantification of luminescent signal using Nano-Glo® HiBiT Lytic Assay kit. […] BRD7 and BRD4 degradation was similarly determined with 293T.167 cells and 293T.92 cells, respectively. […]
// reported DC50 for each item listed
Parameter measured: DC50

- COc1cc(-c2cn(C)c(=O)c3cnccc23)cc(OC)c1CN1CCc2c(CC3CCN(c4ccc(NC5CCC(=O)NC5=O)cc4C(F)(F)F)CC3)cccc2C1 (stereo not drawn): < 0.1 µM
- COc1cc(-c2cn(C)c(=O)c(C)c2C)cc(OC)c1CN1C2CCC1CN(C(=O)CC1CCN(c3ccc(NC4CCC(=O)NC4=O)cc3F)CC1)C2 (stereo not drawn): < 0.1 µM
- CN(C(=O)N1CCC(c2ccc(NC3CCC(=O)NC3=O)cc2)CC1)C1CCN(Cc2ccc(-c3cn(C)c(=O)c4[nH]ncc34)cc2OC(F)(F)F)CC1 (stereo not drawn): < 0.1 µM

====

// reported DC50 for each item listed
target: BRD9 (Homo sapiens, UniProt Q9H8M2); test: HiBiT BRD9 degradation assay in 293T.166 (BRD9-HiBiT) cells; format: cell-based; parameters: endogenously expressing BRD9 with HiBiT fusion tag via CRISPR; host or cells: 293T.166 (BRD9-HiBiT), also expressing LgBiT ectopically; details: Table 1; 293T.166 cells, 2.0 hours; class symbols; read-out: HiBiT-Degradation 293T.166 BRD9 2.0 hours (DC50)
Parameter measured: DC50

- COc1cc(-c2cn(C)c(=O)c3[nH]ncc23)cc(F)c1CN1CCN(C(=O)NC2CCN(c3ccc(NC4CCC(=O)NC4=O)cc3)CC2)CC1 (stereo not drawn): < 100 nM
- CN(C(=O)N1CCC(c2ccc(NC3CCC(=O)NC3=O)cc2F)CC1)C1CCN(C(=O)c2ccc(-c3cn(C)c(=O)c4cc(F)ccc34)cc2OC(F)(F)F)CC1 (stereo not drawn): < 100 nM
- COc1cc(-c2cn(C)c(=O)c3[nH]ncc23)cc(Cl)c1CN1CCC(CCC2CCN(c3ccc(NC4CCC(=O)NC4=O)cc3F)CC2)CC1 (stereo not drawn): < 100 nM

====

// reported DC50 for each item listed
Biological target: UniProt:Q9H8M2
Sequence (Q9H8M2 1-597): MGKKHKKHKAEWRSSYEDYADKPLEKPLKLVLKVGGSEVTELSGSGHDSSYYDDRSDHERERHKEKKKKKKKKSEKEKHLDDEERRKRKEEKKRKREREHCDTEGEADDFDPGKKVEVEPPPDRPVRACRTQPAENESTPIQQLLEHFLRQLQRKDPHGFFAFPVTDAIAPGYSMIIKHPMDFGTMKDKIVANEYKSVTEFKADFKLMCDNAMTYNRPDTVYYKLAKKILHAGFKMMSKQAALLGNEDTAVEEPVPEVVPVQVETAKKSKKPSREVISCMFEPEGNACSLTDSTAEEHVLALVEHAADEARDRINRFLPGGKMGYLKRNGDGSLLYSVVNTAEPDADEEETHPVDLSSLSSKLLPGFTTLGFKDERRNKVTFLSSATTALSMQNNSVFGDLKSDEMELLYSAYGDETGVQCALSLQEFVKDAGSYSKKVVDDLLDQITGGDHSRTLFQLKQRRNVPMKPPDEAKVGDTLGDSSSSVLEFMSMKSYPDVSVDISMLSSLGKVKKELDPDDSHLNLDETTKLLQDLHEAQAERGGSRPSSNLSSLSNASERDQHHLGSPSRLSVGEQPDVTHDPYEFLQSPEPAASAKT
Assay: HiBiT BRD9 degradation assay in 293T.166 (BRD9-HiBiT) cells
Assay type: cell-based
Set-up: endogenously expressing BRD9 with HiBiT fusion tag via CRISPR; host or cells: 293T.166 (BRD9-HiBiT), also expressing LgBiT ectopically
Settings: Table 1; 293T.166 cells, 2.0 hours; class symbols; read-out: HiBiT-Degradation 293T.166 BRD9 2.0 hours (DC50)
Parameter measured: DC50

- COc1cc(-c2cn(C)c(=O)c3[nH]ncc23)cc(F)c1CN1CCC(N(C)C(=O)N2CCC(c3ccc(NC4CCC(=O)NC4=O)cc3)CC2)CC1 (stereo not drawn): < 100 nM
- COc1cc(-c2cn(C)c(=O)c3[nH]ncc23)cc(OC)c1CN1CCN(C(=O)CN2CCC(c3ccc(NC4CCC(=O)NC4=O)cc3)CC2)CC1 (single isomer, unassigned) [Compound 3]: < 100 nM
- CN(C(=O)N1CCC(c2ccc(NC3CCC(=O)NC3=O)cc2F)CC1)C1CCN(C(=O)c2ccc(-c3cn(C)c(=O)c4ccccc34)cc2OC(F)(F)F)CC1 (stereo not drawn): < 100 nM

====

target: UniProtKB P10635; assay: CYP inhibition 2D6; type: in vitro ADME
Sequence (P10635 whole entry): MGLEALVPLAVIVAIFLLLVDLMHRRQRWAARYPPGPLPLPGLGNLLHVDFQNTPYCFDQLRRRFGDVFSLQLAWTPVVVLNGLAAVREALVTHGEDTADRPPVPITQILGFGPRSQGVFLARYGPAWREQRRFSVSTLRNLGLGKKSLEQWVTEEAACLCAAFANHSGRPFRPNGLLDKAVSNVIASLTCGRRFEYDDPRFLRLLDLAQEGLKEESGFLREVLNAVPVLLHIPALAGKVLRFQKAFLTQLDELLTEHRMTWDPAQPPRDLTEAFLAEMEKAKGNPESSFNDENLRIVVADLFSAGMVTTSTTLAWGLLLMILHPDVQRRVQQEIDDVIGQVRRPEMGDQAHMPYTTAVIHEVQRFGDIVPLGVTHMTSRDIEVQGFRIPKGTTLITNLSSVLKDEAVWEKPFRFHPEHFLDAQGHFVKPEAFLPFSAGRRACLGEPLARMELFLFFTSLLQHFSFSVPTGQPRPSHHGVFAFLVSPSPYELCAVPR
Parameter measured: IC50 (µM)

* COc1cc(-c2cn(C)c(=O)c(C)c2C)cc(OC)c1CN1CCC(N2CCN(c3ccc(NC4CCC(=O)NC4=O)cc3F)CC2)C(F)(F)C1 (stereo not shown) | 30

====

// reported clearance for each item listed
assay: IV PK, rat; assay type: in vivo; conditions: in vivo, read-out: IV PK CL
Parameter measured: clearance (mL/min/kg)

• COc1cc(-c2cn(C)c(=O)c(C)c2C)cc(OC)c1CN1CCC(N2CCN(c3ccc(NC4CCC(=O)NC4=O)cc3F)CC2)C(F)(F)C1 (centres unmarked) [Compound 172] = 16
• COc1cc(-c2cn(C)c(=O)c(C)c2C)cc(OC)c1CN1CCC(N2CCN(c3ccc(NC4CCC(=O)NC4=O)cc3F)CC2)C(F)(F)C1 (single isomer, unassigned) [Compound 176] = 21.6

====

Molecular target: BRD9 (Homo sapiens, UniProt Q9H8M2)
Sequence (Q9H8M2 1-597): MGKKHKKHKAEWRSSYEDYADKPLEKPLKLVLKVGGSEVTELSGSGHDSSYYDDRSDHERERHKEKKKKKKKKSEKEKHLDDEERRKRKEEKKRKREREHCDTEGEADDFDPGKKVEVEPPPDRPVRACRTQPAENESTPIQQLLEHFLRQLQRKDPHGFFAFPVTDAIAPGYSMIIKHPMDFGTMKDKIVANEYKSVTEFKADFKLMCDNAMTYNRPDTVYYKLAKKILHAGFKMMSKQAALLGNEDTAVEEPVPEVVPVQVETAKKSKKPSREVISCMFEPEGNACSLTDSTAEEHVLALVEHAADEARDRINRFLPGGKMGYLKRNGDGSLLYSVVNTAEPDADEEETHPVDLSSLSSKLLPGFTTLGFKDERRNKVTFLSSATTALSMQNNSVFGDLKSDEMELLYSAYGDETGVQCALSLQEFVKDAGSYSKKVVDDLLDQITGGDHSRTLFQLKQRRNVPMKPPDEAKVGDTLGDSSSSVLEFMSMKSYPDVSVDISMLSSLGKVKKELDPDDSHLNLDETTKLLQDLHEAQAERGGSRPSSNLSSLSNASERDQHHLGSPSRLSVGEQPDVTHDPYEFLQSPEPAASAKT
Assay: BRD9 binding (Ki)
pKi: −log10 of the molar value.
Parameter measured: pKi

- COc1cc(-c2cn(C)c(=O)c(C)c2C)cc(OC)c1CN1CCC(N2CCN(c3ccc(NC4CCC(=O)NC4=O)cc3F)CC2)C(F)(F)C1 (stereo not shown): 7.09

====

target: BRD9 (Homo sapiens); experiment: HiBiT BRD9 degradation assay in 293T.166 (BRD9-HiBiT) cells; assay type: cell-based; design: endogenously expressing BRD9 with HiBiT fusion tag via CRISPR; host or cells: 293T.166 (BRD9-HiBiT), also expressing LgBiT ectopically; conditions: Table 1; 293T.166 cells, 2.0 hours; class symbols; read-out: HiBiT-Degradation 293T.166 BRD9 2.0 hours (DC50)
Parameter measured: DC50

* COc1cc(-c2cn(C)c(=O)c3[nH]ncc23)cc(OC)c1CN1CCc2c(CC3CCN(c4ccc(NC5CCC(=O)NC5=O)cc4F)CC3)cccc2C1 (stereo not drawn) [Compound 106] | < 100 nM
* COc1cc(-c2cn(C)c(=O)c(C)c2C)cc(Cl)c1CN1CCC(C2CCN(c3ccc(NC4CCC(=O)NC4=O)cc3F)CC2)CC1 (stereo not drawn) [Compound 74] | < 100 nM
* Cn1cc(-c2cc(Cl)c(C(=O)N3CCN(C(=O)CN4CCC(c5ccc(NC6CCC(=O)NC6=O)cc5)CC4)CC3)cc2Cl)c2cn[nH]c2c1=O (stereo not drawn) [Compound 48] | 100 to 500 nM
* COc1cc(-c2cn(C)c(=O)c3cnccc23)cc(Cl)c1C(=O)N1CCC(C2CCN(c3ccc(NC4CCC(=O)NC4=O)nc3)CC2)CC1 (stereo not drawn) [Compound 221] | < 100 nM
* COc1cc(-c2cn(C)c(=O)c3cnccc23)cc(Cl)c1C(=O)N1CCC(CC(=O)N2CCC(c3ccc(NC4CCC(=O)NC4=O)cc3)CC2)CC1 (stereo not drawn) [Compound 232] | < 100 nM
* COc1cc(-c2cn(C)c(=O)c3[nH]ncc23)cc(OC)c1CN1CCN(C(=O)CN2CCC(c3ccc(NC4CCC(=O)NC4=O)cc3C(F)F)CC2)CC1 (stereo not drawn) [Compound 11] | < 100 nM
* COc1cc(-c2cn(C)c(=O)c3[nH]ncc23)cc(OC)c1CN1CCN(C(=O)CC2CCN(c3ccc(NC4CCC(=O)NC4=O)cc3Cl)CC2)CC1 (stereo not drawn) [Compound 67] | < 100 nM
* COc1cc(-c2cn(C)c(=O)c3[nH]ncc23)cc(F)c1CN1CCN(C(=O)CN2CCC(c3ccc(NC4CCC(=O)NC4=O)cc3)CC2)CC1 (stereo not drawn) [Compound 9] | < 100 nM
* COc1cc(-c2cn(C)c(=O)c3cnccc23)cc(OC)c1CN1CCC(N2CCN(c3ccc(NC4CCC(=O)NC4=O)cc3C(F)(F)F)CC2)C(F)(F)C1 (stereo not drawn) [Compound 185] | < 100 nM
* COc1cc(-c2cn(C)c(=O)c3[nH]ncc23)cc(OC)c1CN1CCC(OC(=O)N2CCC(c3ccc(NC4CCC(=O)NC4=O)cc3)CC2)CC1 (stereo not drawn) [Compound 94] | < 100 nM
* COc1cc(-c2cn(C)c(=O)c3cnccc23)cc(Cl)c1C(=O)N1CCC(N(C)C(=O)N2CCC(c3ccc(NC4CCC(=O)NC4=O)cc3F)CC2)CC1 (stereo not drawn) [Compound 142] | < 100 nM
* COc1cc(-c2cn(C)c(=O)c3cnccc23)cc(Cl)c1C(=O)N1CCC(CCC2CCN(c3ccc(NC4CCC(=O)NC4=O)cc3F)CC2)CC1 (stereo not drawn) [Compound 241] | < 100 nM
